test: in vitro; settings: human
readout: CC50 (µM)
Write the number in µM without appending the unit.

In one line, give reported CC50 of the entry COC(=O)Cn1c(C)nc(C#N)c1N [Compound 4a] .
1.02

Input COC(=O)C(Cc1ccc(O)cc1)n1c(C)nc(C#N)c1N (stereo not drawn) [Compound 4f] , output reported CC50.
1.45

Using the record for COC(=O)C(C)n1c(C)nc2c(=O)[nH]cnc21 (stereo not drawn) [Compound 6b] , state its measured CC50.
0.47

// fetch CC50 given entry Cc1nc2c(=O)[nH]cnc2n1CC(=O)O [Compound 7a]
0.75

Provide CC50 value for the following molecule: COC(=O)C(CO)n1c(C)nc(C#N)c1N (stereo not drawn) [Compound 4d]
1.99

Give the measured CC50 for COC(=O)C(Cc1ccccc1)n1c(C)nc(C#N)c1N (stereo not drawn) [Compound 4e]
0.84

Input COC(=O)C(C(C)C)n1c(C)nc2c(=O)[nH]cnc21 (stereo not drawn) [Compound 6c] , output reported CC50.
0.31

// fetch CC50 given entry Cc1nc(C#N)c(N)n1C(C(=O)O)C(C)C (stereo not drawn) [Compound 5c]
0.62

Return CC50 for the following molecule: COC(=O)C(Cc1ccc(O)cc1)n1c(C)nc2c(=O)[nH]cnc21 (stereo not drawn) [Compound 6f]
0.8
